assay: 50 mg/kg was administered orally in anesthetized rats and the concentration in plasma was determined after 30 minutes.; settings: rat, po
assay_metric: concentration at 0.5 h

Could you share which concentration at 0.5 h value was measured for `CC(=O)N1CCN(C(=O)[C@@H](Cc2cccc(C(=N)N)c2)NS(=O)(=O)c2ccc3ccccc3c2)CC1` ? 450 ng/mL

* * *

pKi data for Tissue-type plasminogen activator (Homo sapiens) follow.
The value called pKi is obtained by taking minus log10 of the concentration in mol/L.

N=C(N)c1cccc(C[C@@H](NS(=O)(=O)c2ccc3ccccc3c2)C(=O)N2CCN(C=O)CC2)c1; 3.96
N=C(N)c1cccc(C[C@@H](NS(=O)(=O)c2ccc3ccccc3c2)C(=O)N2CCN(CCO)CC2)c1; 3.74

Reported pKi, compound `CC(=O)N1CCN(C(=O)[C@@H](Cc2cccc(C(=N)N)c2)NS(=O)(=O)c2ccc3ccccc3c2)CC1` : ____ 3.39

Can you look up the measured pKi of `CS(=O)(=O)N1CCN(C(=O)[C@@H](Cc2cccc(C(=N)N)c2)NS(=O)(=O)c2ccc3ccccc3c2)CC1` for me? 3.72

Need pKi of CC1(C)C2CCC1(CCS(=O)(=O)N[C@H](Cc1cccc(C(=N)N)c1)C(=O)N1CCN(S(C)(=O)=O)CC1)C(=O)C2 (stereo partly drawn) , thanks. 4.70

Tell me the measured pKi of `Cc1c(C)c(S(=O)(=O)N[C@H](Cc2cccc(C(=N)N)c2)C(=O)N2CCN(S(C)(=O)=O)CC2)c(C)c2c1OC(C)(C)CC2` , please. 3.33
